target: T1, ICAM-1 protein antigen (R&D System) (human, UniProt P05362 28-480); assay: ELISA, ICAM-1 coated 100 ng/well, anti-human Ig-HRP
T1 construct: The assay paragraphs say only 'ICAM-1 (R&D System)'; also called antigen ICAM-1; ICAM-1 antigen
T1 sequence (P05362 28-480 limits assumed): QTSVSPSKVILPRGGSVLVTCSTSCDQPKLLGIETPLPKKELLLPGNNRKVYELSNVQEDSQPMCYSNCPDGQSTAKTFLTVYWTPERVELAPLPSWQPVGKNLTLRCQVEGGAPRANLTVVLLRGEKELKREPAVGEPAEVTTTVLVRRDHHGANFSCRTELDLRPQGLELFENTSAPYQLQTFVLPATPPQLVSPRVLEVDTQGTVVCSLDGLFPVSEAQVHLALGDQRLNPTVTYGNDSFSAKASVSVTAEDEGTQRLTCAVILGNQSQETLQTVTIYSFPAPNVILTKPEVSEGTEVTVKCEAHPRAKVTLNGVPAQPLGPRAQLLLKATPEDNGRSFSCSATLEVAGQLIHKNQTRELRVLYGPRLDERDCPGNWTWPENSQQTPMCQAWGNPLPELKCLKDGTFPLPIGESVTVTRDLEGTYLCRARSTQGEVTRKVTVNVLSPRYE
Catalogue of binders with associated OD 450 nm at 20 ng/ml antibody

Sample records with OD 450 nm at 20 ng/ml antibody:
humanized anti-ICAM-1 antibody H5L3 (VH5 + VL3), human IgG4/kappa (antibody, V domains shown, The Arg at the VL/CL junction is in neither entry) VH: QVQLVQSGAEVKKPGASVKISCKASGYTFTDYALHWVRQAPGQRLEWMGVISTYSGNTDYNQKFRGRVTITVDKSATTAYMELSSLRSEDTAVYYCARSLYFGSSGFDYWGQGTALTVSS VL: DVVLTQTPLSSPVTLGQPASISCRSSQTLVYRNGNTYLHWYLQRAGQPPRLLIYKVSNRFSGVPDRFSGSGAGTDFTLKISRVEAEDVGVYFCSQNTHFPYTFGGGTKLEIKT: 0.592 OD (450 nm)
humanized anti-ICAM-1 antibody H4L3 (VH4 + VL3), human IgG4/kappa (antibody, V domains shown, The Arg at the VL/CL junction is in neither entry) VH: QVQLVQSGAEVKKPGASVKVSCKASGYTFTDYALHWVRQAPGQRLEWIGVISTYSGNTDYNQKFRGRVTMTRDTSATTAYLELSSLRSEDTAVYYCARSLYFGSSGFDYWGQGTALTVSS VL: DVVLTQTPLSSPVTLGQPASISCRSSQTLVYRNGNTYLHWYLQRAGQPPRLLIYKVSNRFSGVPDRFSGSGAGTDFTLKISRVEAEDVGVYFCSQNTHFPYTFGGGTKLEIKT: 0.52 OD (450 nm)

Now for another entry.
Need OD 450 nm at 20 ng/ml antibody, item humanized anti-ICAM-1 antibody H17L3 (VH17 + VL3), human IgG4/kappa (antibody, V domains shown, The Arg at the VL/CL junction is in neither entry) VH: QVQLVQSGAEVKKPGASVKISCKGSGYTFTDYALHWVRQAPGQRLEWMGVISTYSGNTDYNQKFRGRATITVDTSASTAYMELSSLRSEDTAVYYCARSLYFGSSGFDYWGQGTALTVSS VL: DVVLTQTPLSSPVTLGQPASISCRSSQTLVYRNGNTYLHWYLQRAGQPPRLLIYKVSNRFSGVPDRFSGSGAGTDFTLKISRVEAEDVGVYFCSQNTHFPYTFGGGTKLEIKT
0.567 OD (450 nm)

From: patent US20240287188A1
